Receptor-interacting serine/threonine-protein kinase 3 (Homo sapiens) Kd, compiled from various sources.

Solved cases below.
>  <compound>
[2H]C([2H])([2H])N1CCC(n2cc(-c3cnc(N)c4c(-c5ccc(NS(=O)(=O)C(F)F)c(O[C@@H](C)c6ccc(F)cc6)c5)nn(C)c34)cn2)CC1

>  <Kd>
> 10 µM

$$$$
>  <compound>
COc1cc(Nc2[nH]nc(-c3ccc(NS(=O)(=O)C(F)F)c(O[C@@H](C)c4ccc(F)cc4)c3)c2C(N)=O)nn1C

>  <Kd>
> 30 µM

$$$$
>  <compound>
C[C@H](Oc1cc(-c2nn(C)c3c(-c4ccc(Cl)cc4)cnc(N)c23)ccc1NS(=O)(=O)C(F)F)c1ccc(F)cc1

>  <Kd>
> 10 µM

$$$$
>  <compound>
CCS(=O)(=O)Nc1ccc(-c2n[nH]c(Nc3cnc(OC)cn3)c2C(N)=O)cc1OCc1ccc(F)cc1

>  <Kd>
> 30 µM

$$$$
>  <compound>
NC(=O)c1c(-c2ccc(NS(=O)(=O)Cc3cccc(Cl)c3)cc2)n[nH]c1Nc1cccc(C(F)(F)F)n1

>  <Kd>
> 30 µM

$$$$
>  <compound>
C[C@H](Oc1cc(-c2nn(C)c3c(-c4cnn(CC(F)(F)F)c4)cnc(N)c23)ccc1NS(=O)(=O)C(F)F)c1ccc(F)cc1

>  <Kd>
> 10 µM

$$$$
>  <compound>
Cn1nc(-c2ccc(NS(=O)(=O)C(F)F)c(OCc3ncco3)c2)c2c(N)ncc(-c3cnn(C4CCOCC4)c3)c21

>  <Kd>
> 10 µM

$$$$
>  <compound>
C[C@H](Oc1cc(-c2nn(C)c3c(-c4cnn(C5C[C@@H]6CN(C)C[C@@H]6C5)c4)cnc(N)c23)ccc1NS(=O)(=O)C(F)F)c1ccc(F)cc1 (stereo partly shown)

>  <Kd>
> 10 µM

$$$$
>  <compound>
CCS(=O)(=O)Nc1ccc(-c2n[nH]c(Nc3cccc(C(F)(F)F)n3)c2C(N)=O)cc1OCC1CCCCC1

>  <Kd>
> 30 µM

$$$$
>  <compound>
COCCOc1cc(Nc2[nH]nc(-c3ccc(NS(=O)(=O)N(C)C)cc3)c2C(N)=O)ccn1

>  <Kd>
> 30 µM

$$$$

Input: Answer with Kd of `C[C@H](Oc1cc(-c2nn(C)c3c(-c4cccc(Cl)c4)cnc(N)c23)ccc1NS(=O)(=O)C(F)F)c1ccc(F)cc1` measured for Receptor-interacting serine/threonine-protein kinase 3 (Homo sapiens).
Output: > 10 µM

Input: Answer with Kd of `NC(=O)c1c(-c2ccc(NS(=O)(=O)CC3CCC3)cc2)n[nH]c1Nc1cnccn1` measured for Receptor-interacting serine/threonine-protein kinase 3 (Homo sapiens).
Output: > 30 µM

Input: Answer with Kd of `Nc1n[nH]c2ccnc(-c3ccc(NS(=O)(=O)CC(F)(F)F)c(OCc4ccc(F)cc4)c3)c12` measured for Receptor-interacting serine/threonine-protein kinase 3 (Homo sapiens).
Output: > 10 µM

----------
pKd: −log10 of the molar value.
Receptor-interacting serine/threonine-protein kinase 3 (Homo sapiens) pKd, compiled from various sources.

>  <compound>
C[C@H](Oc1cc(-c2nn(C)c3c(-c4cnn(C5CCOC5)c4)cnc(N)c23)ccc1NS(=O)(=O)C(F)F)c1ccc(F)cc1 (stereo partly drawn)

>  <result>
< 5.00

$$$$
>  <compound>
C[C@H](Oc1cc(-c2n[nH]c(Nc3cc(C4(C(F)(F)F)CC4)on3)c2C(N)=O)ccc1NS(=O)(=O)C(F)F)c1ccc(F)cc1

>  <result>
< 4.52

$$$$
>  <compound>
C[C@H](Oc1cc(-c2ccnc3[nH]nc(N)c23)ccc1NS(=O)(=O)C(F)F)c1ccc(F)cc1

>  <result>
< 5.00

$$$$
>  <compound>
CCS(=O)(=O)Nc1ccc(-c2n[nH]c(Nc3ccc(C(F)(F)F)nc3)c2C(N)=O)cc1OCc1ccc(F)cc1

>  <result>
< 4.52

$$$$

Input: For the compound `Cc1nc(Nc2[nH]nc(-c3ccc(NS(=O)(=O)C(F)F)c(O[C@@H](C)c4ccc(F)cc4)c3)c2C(N)=O)sc1C` , give its measured pKd value.
Output: < 4.52

Input: For the compound `C[C@H](Oc1cc(-c2n[nH]c(Nc3cc4n(n3)CCCN(C)C4)c2C(N)=O)ccc1NS(=O)(=O)C(F)F)c1ccc(F)cc1` , give its measured pKd value.
Output: < 4.52
